# LC retention time listing for each entry below
- PROTOCOL TEXT: RP, Waters ACQUITY UPLC HSS T3, 150 × 2.1 mm, 1.7 µm, 30 °C, 0.4 mL/min, estimated dead time 0.83 min; A: water + 0.2% formic acid; B: 2% water + 98% acetonitrile + 0.2% formic acid; gradient (min/%B) 0/0 2.5/0 7.5/10 10/100 12/100 18/0 25/0
- APPLIED CONDITIONS: stereoisomer not certain
OUTCOME MEASURE: LC retention time (min)

molecule=COc1ccc2ncccc2c1 outcome_measure="LC retention time" quantitative_readout=8.57
molecule="CCC=CCC1C(=O)CCC1CC(=O)OC (stereo unspecified) [methyl jasmonate]" outcome_measure="LC retention time" quantitative_readout=10.6
molecule="NC(=O)NCCCC(N)C(=O)O (stereo unspecified)" outcome_measure="LC retention time" quantitative_readout=1.55
molecule=C[N+](C)(C)CC(=O)[O-] outcome_measure="LC retention time" quantitative_readout=1.55
molecule=NCCCCCCCCN outcome_measure="LC retention time" quantitative_readout=1.74
molecule="CC(=CCNc1ncnc2nc[nH]c12)CO [trans-zeatin]" outcome_measure="LC retention time" quantitative_readout=7.57
